Source listed as ChEMBL document CHEMBL4346734.

Target: Glutamate receptor ionotropic, NMDA 2B (Homo sapiens) (UniProt Q13224)
Sequence (Q13224 27-1484 limits assumed): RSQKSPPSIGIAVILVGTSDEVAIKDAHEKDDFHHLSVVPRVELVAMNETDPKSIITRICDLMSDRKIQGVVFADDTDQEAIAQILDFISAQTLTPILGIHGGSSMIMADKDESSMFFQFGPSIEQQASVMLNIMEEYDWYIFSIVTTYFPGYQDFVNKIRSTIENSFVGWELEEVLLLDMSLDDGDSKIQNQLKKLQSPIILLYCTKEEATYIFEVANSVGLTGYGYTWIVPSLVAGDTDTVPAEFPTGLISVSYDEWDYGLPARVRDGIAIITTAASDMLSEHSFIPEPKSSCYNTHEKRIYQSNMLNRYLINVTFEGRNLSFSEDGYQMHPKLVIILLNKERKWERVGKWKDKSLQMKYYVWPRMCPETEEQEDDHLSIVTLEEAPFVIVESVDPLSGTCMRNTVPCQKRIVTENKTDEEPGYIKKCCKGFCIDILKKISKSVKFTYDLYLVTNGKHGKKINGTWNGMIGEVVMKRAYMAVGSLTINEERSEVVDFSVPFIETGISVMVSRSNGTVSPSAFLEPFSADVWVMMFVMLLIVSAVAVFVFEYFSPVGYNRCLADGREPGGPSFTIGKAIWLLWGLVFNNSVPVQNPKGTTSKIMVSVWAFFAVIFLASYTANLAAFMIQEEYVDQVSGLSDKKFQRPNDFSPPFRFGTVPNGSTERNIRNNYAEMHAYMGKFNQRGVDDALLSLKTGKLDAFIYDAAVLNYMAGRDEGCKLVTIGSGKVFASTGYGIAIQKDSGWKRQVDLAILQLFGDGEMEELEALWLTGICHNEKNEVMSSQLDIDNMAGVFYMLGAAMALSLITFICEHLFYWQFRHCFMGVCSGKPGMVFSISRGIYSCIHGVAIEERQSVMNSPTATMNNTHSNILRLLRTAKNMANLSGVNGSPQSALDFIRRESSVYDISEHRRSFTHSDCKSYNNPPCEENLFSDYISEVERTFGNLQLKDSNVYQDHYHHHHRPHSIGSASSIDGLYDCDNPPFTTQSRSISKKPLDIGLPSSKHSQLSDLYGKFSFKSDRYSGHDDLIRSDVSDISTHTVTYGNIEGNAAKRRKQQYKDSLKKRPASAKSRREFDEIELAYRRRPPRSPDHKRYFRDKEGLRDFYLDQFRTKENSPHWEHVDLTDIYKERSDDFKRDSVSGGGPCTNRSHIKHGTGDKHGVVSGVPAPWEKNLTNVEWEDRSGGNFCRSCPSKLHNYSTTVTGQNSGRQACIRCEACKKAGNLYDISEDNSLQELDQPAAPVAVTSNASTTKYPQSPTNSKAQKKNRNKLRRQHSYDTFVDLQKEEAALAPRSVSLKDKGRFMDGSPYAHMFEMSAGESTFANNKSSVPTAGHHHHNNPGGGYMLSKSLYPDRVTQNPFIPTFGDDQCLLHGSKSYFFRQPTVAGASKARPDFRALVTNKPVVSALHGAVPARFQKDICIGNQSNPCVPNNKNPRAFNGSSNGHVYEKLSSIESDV
Assay: Displacement of [3H]ifenprodil from human GluN2B expressed in mouse L(tk-) cell membranes at 1 uM incubated for 120 mins by scintillation counting method relative to control
For each entry below, report its inhibition value.
One number for each entry, in %.

COc1ccc2c(c1)CCN(CCCCc1cccnc1)CC2O (configuration not stated)
0

Quick one: give me inhibition for each item below, same order please.
1. COc1ccc2c(c1)CCN(CCC#Cc1ccccc1)CC2O (configuration not stated)
2. COc1ccc2c(c1)CCN(CCC#Cc1nccs1)CC2O (configuration not stated)
3. COc1ccc2c(c1)CCN(CCC#Cc1ccc(OCCF)cc1)CC2O (configuration not stated)
4. COc1ccc2c(c1)CCN(CCC#Cc1ccccc1OCCF)CC2O (configuration not stated)
5. COc1ccc2c(c1)CCN(CCC#Cc1cccs1)CC2O (configuration not stated)
6. COc1ccc2c(c1)CCN(CCCCc1cn(CCF)nn1)CC2O (configuration not stated)
7. OC1CN(CCC#Cc2ccc(OCCF)cc2)CCc2cc(OCc3ccccc3)ccc21 (configuration not stated)
8. COc1ccc2c(c1)CCN(CCC#Cc1cccnc1)CC2O (configuration not stated)

18
0
3
4
13
0
0
1

Batch request: inhibition per item, same order as input.
1. COc1ccc2c(c1)CCN(CCCCc1cccs1)CC2O (configuration not stated)
2. COc1ccc2c(c1)CCN(CCC#Cc1cccc(OCCF)c1)CC2O (configuration not stated)

1. 20
2. 3

Find inhibition (Glutamate receptor ionotropic, NMDA 2B (Homo sapiens) (UniProt Q13224)) for the entry COc1ccc2c(c1)CCN(CCCCc1ccccc1OCCF)CC2O (configuration not stated) 19
